target: Metabotropic glutamate receptor 4 (Homo sapiens); experiment: Positive allosteric modulation of human mGlu4 receptor expressed in CHO cells co-expressing Gqi5 assessed as increase in glutamate-induced calcium mobilization preincubated for 142 secs followed by EC20 glutamate addition and measured after 147 secs by Fluo-4-AM dye based fluorescence assay relative to control; format: functional, cell-based
Sequence (Q14833 whole entry): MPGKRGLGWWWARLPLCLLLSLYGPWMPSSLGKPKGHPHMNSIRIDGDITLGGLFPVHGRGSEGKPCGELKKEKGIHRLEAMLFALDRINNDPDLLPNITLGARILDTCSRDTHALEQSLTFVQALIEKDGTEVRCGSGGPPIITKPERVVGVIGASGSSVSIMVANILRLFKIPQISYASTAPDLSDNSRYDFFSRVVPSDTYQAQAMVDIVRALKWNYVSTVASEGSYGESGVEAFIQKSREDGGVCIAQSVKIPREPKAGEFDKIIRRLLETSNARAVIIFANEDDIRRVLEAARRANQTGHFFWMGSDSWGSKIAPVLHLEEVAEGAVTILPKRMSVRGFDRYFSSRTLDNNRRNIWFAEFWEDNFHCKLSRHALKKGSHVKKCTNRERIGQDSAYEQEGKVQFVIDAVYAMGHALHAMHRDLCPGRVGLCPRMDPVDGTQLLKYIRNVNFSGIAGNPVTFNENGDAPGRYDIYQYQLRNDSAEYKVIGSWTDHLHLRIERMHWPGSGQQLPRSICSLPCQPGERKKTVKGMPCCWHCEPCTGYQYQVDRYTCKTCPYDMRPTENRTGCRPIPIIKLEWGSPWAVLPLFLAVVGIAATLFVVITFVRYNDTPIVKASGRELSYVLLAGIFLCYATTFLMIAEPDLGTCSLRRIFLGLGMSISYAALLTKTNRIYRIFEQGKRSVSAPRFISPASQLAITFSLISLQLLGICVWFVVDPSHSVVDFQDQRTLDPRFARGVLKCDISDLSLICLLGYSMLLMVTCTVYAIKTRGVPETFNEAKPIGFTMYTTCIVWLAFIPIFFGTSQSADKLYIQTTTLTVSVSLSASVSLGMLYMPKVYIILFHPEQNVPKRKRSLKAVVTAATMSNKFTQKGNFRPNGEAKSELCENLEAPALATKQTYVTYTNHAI
Class (by %max) -- low class: < 70%; middle class: ≥ 70% and < 80%; high class: ≥ 80%

1. CC(C)(C)Cc1nsc2cc(Nc3n[nH]c4ncccc34)ccc12    middle class
2. CCc1noc2ccc(Nc3n[nH]c4ncccc34)cc12    low class
3. c1cnc2c(Nc3ccc4c(C5CCCC5)noc4c3)n[nH]c2c1    high class
4. O=C(c1nsc2cc(Nc3n[nH]c4cccnc34)ccc12)N1CCC(F)(F)C1    high class
5. CCc1nsc2cc(Nc3n[nH]c4ncccc34)ccc12    low class
6. CCc1nsc2cc(Nc3n[nH]c4cccnc34)ccc12    middle class
7. c1cnc2c(Nc3ccc4c(C5CC5)nsc4c3)n[nH]c2c1    middle class
8. CC1CN(C(=O)c2nsc3cc(Nc4n[nH]c5cccnc45)ccc23)CC(C)O1 (stereo unspecified)    low class

---

Measured EC50, listed per entry for reference.
target: Metabotropic glutamate receptor 4 (Homo sapiens); assay: Positive allosteric modulation of human mGlu4 receptor expressed in CHO cells co-expressing Gqi5 assessed as increase in glutamate-induced calcium mobilization preincubated for 142 secs followed by EC20 glutamate addition and subsequent EC80 glutamate addition after 147 secs by Fluo-4-AM dye based fluorescence assay
assay_readout: EC50 (µM)

1. c1cnc2c(Nc3ccc4c(C5CCCC5)noc4c3)n[nH]c2n1    0.514
2. O=C(c1nsc2cc(Nc3n[nH]c4cccnc34)ccc12)N1CCC(F)(F)CC1    0.0524
3. CCCC(C)c1noc2cc(Nc3n[nH]c4cccnc34)ccc12 (stereo unspecified)    0.117
4. CC(C)c1noc2cc(Nc3n[nH]c4cccnc34)ccc12    0.575
5. FC(F)(F)c1nsc2cc(Nc3n[nH]c4ncccc34)ccc12    0.794
6. CC(C)(C)Cc1nsc2cc(Nc3n[nH]c4nccnc34)cnc12    0.105
7. CC1CC(C)CN(C(=O)c2nsc3cc(Nc4n[nH]c5cccnc45)ccc23)C1 (stereo unspecified)    0.447
8. CCC(CC)c1noc2cc(Nc3n[nH]c4nccnc34)ccc12    0.098
9. CC(C)(C)Cc1nsc2cc(Nc3n[nH]c4cccnc34)ccc12    0.269
10. Cc1noc2ccc(Nc3n[nH]c4ncccc34)cc12    0.227
11. O=C(NC1CC(F)(F)C1)c1nsc2cc(Nc3n[nH]c4cccnc34)ccc12    0.0501

---

target: Metabotropic glutamate receptor 4 (Homo sapiens); assay: Positive allosteric modulation of human mGlu4 receptor expressed in CHO cells co-expressing Gqi5 assessed as increase in glutamate-induced calcium mobilization preincubated for 142 secs followed by EC20 glutamate addition and measured after 147 secs by Fluo-4-AM dye based fluorescence assay relative to control; assay type: functional, cell-based
Measured %max, listed per entry for reference.
assay_readout: %max (%)

1. CC(C)(C)Cc1noc2cc(Nc3n[nH]c4cccnc34)ccc12    68.9
2. O=C(NC1CC(F)(F)C1)c1nsc2cc(Nc3n[nH]c4cccnc34)ccc12    50.5
3. CC(C)Cc1noc2cc(Nc3n[nH]c4cccnc34)ccc12    53
4. CC(C)(C)Cc1nsc2cc(Nc3n[nH]c4cccnc34)cnc12    51
5. CC(C)(C)Cc1nsc2cc(Nc3n[nH]c4nccnc34)cnc12    54
6. O=C(NC1CC(F)(F)C1)c1nsc2cc(Nc3n[nH]c4nccnc34)ccc12    68.1
7. Cc1noc2ccc(Nc3n[nH]c4ncccc34)cc12    81.9
8. CCC(CC)c1noc2cc(Nc3n[nH]c4nccnc34)ccc12    106
9. c1cnc2c(Nc3ccc4c(C5CCCC5)noc4c3)n[nH]c2n1    85.5
10. CC(C)c1noc2cc(Nc3n[nH]c4cccnc34)ccc12    23
11. FC(F)(F)c1nsc2cc(Nc3n[nH]c4ncccc34)ccc12    50
